These data points were gathered from patent US20220267441A1.

# assayedTarget: T1, purified human CD45 ectodomain (human CD45RABC antigen) (human, UniProt P08575 26-577)
# T1 construct: also called hCD45
# T1 sequence: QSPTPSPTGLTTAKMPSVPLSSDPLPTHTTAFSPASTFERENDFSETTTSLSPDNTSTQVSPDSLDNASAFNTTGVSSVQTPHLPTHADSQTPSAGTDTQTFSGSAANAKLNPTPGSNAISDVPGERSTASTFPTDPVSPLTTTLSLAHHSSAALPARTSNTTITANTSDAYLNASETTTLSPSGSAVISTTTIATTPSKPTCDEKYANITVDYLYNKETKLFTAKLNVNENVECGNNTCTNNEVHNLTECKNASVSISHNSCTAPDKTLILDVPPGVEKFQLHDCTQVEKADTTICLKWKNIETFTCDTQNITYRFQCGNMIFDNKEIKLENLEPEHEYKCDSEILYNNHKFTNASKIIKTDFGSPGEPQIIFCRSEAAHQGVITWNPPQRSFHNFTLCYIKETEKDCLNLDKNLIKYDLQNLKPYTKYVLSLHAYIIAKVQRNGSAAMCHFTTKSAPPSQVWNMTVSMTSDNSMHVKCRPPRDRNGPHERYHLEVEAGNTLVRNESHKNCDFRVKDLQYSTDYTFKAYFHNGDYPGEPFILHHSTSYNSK
# assay: BLI (Octet Red96), IgG on anti-human Fc sensor, 50 nM CD45 ectodomain, 1:1 fit
Lab note: cut-off is 0.1 nM. Strictly less in Kd is Y. Exactly 0.1 nM or more is N.

Past entries and their recorded results:
Antibody 6 (Ab6) (antibody, V domains shown) VH: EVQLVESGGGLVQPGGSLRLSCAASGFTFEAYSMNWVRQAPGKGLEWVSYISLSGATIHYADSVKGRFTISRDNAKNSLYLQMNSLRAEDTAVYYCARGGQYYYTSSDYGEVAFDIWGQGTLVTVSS VL: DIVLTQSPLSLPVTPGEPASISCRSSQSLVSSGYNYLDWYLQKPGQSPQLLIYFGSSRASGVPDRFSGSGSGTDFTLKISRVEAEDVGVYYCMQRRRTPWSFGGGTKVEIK; Y
Antibody 7 (Ab7) (antibody, V domains shown, Human IgG: Ab3 with the Asn to Ser substitution in CDR-L1) VH: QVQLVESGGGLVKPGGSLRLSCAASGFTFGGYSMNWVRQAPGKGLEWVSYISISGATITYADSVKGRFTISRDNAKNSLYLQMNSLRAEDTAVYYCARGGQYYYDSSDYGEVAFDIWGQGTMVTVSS VL: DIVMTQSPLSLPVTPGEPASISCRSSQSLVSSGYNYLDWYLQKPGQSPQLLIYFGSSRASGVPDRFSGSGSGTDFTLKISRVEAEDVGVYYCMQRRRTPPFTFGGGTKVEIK; N
Antibody 4 (Ab4) (antibody, V domains shown) VH: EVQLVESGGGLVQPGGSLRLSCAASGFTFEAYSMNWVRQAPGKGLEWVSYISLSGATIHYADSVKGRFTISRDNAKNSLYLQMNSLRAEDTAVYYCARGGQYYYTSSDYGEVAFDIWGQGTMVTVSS VL: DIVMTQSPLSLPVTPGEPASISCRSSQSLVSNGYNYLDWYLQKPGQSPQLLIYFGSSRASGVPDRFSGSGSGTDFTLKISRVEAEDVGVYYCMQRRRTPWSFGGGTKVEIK; Y
Antibody 3 (Ab3) (antibody, V domains shown) VH: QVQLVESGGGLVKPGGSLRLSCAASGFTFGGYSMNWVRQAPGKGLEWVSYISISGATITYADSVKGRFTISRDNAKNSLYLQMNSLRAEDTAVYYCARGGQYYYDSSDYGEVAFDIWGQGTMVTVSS VL: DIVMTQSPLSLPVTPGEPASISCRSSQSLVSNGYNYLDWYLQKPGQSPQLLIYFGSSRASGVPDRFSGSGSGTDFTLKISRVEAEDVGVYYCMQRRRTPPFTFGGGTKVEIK; N

Query block: Please state whether Kd is below 0.1 nM for Antibody 2 (Ab2) (antibody, V domains shown) VH: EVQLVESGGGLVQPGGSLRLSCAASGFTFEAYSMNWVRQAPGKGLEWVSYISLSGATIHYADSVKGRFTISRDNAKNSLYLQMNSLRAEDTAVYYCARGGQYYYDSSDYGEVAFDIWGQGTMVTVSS VL: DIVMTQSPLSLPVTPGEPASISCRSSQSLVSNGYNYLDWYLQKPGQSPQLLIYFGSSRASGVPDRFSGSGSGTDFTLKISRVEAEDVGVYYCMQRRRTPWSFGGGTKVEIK
Result block: N

Query block: Please state whether Kd is below 0.1 nM for Antibody 5 (Ab5) (antibody, V domains shown, Human IgG: Ab4 with the Asn to Ser substitution in CDR-L1) VH: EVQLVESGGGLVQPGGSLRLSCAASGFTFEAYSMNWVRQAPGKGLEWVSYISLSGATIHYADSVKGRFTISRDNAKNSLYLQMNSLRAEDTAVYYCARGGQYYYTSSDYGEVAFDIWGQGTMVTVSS VL: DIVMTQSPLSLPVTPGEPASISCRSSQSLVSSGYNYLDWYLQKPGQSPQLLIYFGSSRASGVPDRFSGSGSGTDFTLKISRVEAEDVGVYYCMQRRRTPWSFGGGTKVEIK
Result block: N
